Data origin: the supplement of paper PMC4862054

- System: HCC1937
- assay text: normalised response (% of control), CellTox Green; higher = less cell death (100 = DMSO, 0 = benzethonium chloride kill control)
- condition info: incubation time: 72 h
assay readout: normalised response
Quick note: unit goes after the number.

Would you please look over these solved cases?
[
  {
    "compound": "CC[C@]1(O)C[C@@H]2CN(CCc3c([nH]c4ccccc34)[C@@](C(=O)OC)(c3cc4c(cc3OC)N(C)[C@H]3[C@@](O)(C(=O)OC)[C@H](OC(C)=O)[C@]5(CC)C=CCN6CC[C@]43[C@@H]65)C2)C1 [Vinblastine] (10 nM)",
    "target entity": "HCC1937",
    "observed value": "92.3%"
  },
  {
    "compound": "CN(C)C/C=C/C(=O)Nc1cc2c(Nc3ccc(F)c(Cl)c3)ncnc2cc1O[C@H]1CCOC1 [Afatinib] (100 nM)",
    "target entity": "HCC1937",
    "observed value": "135%"
  },
  {
    "compound": "C=CC[C@@H]1/C=C(\\C)C[C@H](C)C[C@H](OC)[C@H]2O[C@@](O)(C(=O)C(=O)N3CCCC[C@H]3C(=O)O[C@H](/C(C)=C/[C@@H]3CC[C@@H](O)[C@H](OC)C3)[C@H](C)[C@@H](O)CC1=O)[C@H](C)C[C@@H]2OC [Tacrolimus] (10000 nM)",
    "target entity": "HCC1937",
    "observed value": "93.6%"
  }
]

Now consider the entry below.
Query: Respond only with normalised response recorded for CCN1CCN(c2ccc(Nc3cc(N(C)C(=O)Nc4c(Cl)c(OC)cc(OC)c4Cl)ncn3)cc2)CC1 [NVP-BGJ398] (10 nM)
Response: 106%

----------
- Test system: MDA-MB-468
- assay text: normalised viability (% of control), CellTiter-Blue; higher = more viable cells (about 100 = DMSO control)
- condition info: 1000 nM; incubation time: 72 h
# note: exactly 70% is not below, so it is Condition not met; use Condition met for normalised viability strictly under it

Query: Bench note: check whether CO[C@H]1C[C@@H]2CC[C@@H](C)[C@@](O)(O2)C(=O)C(=O)N2CCCC[C@H]2C(=O)O[C@H]([C@H](C)C[C@@H]2CC[C@@H](OC(=O)C(C)(CO)CO)[C@H](OC)C2)CC(=O)[C@H](C)/C=C(\C)[C@@H](O)[C@@H](OC)C(=O)[C@H](C)C[C@H](C)/C=C/C=C/C=C/1C shows normalised viability below 70%
Response: Condition met

----------
Attribute: normalised response
- Tested on: MCF-10A
- assay text: normalised response (% of control), CellTox Green; higher = less cell death (100 = DMSO, 0 = benzethonium chloride kill control)
- condition info: incubation time: 72 h
Give just the numeric value; % need not be written.

[
  {
    "compound": "CN(C)C/C=C/C(=O)Nc1cc2c(Nc3ccc(F)c(Cl)c3)ncnc2cc1O[C@H]1CCOC1 [Afatinib] (100 nM)",
    "readout unit": "%",
    "normalised response": 85.5
  }
]

Now consider the entry below.
Query: Respond only with normalised response recorded for COc1cccc2c1C(=O)c1c(O)c3c(c(O)c1C2=O)C[C@@](O)(C(=O)CO)C[C@@H]3O[C@H]1C[C@H](N)[C@H](O)[C@H](C)O1 [Doxorubicin] (100 nM)
Response: 115

----------
Attribute: normalised response
- Test system: CAL-51
- assay text: normalised response (% of control), CellTox Green; higher = less cell death (100 = DMSO, 0 = benzethonium chloride kill control)
- condition info: incubation time: 72 h
Give just the numeric value; % need not be written.

[
  {
    "compound": "C=CC[C@@H]1/C=C(\\C)C[C@H](C)C[C@H](OC)[C@H]2O[C@@](O)(C(=O)C(=O)N3CCCC[C@H]3C(=O)O[C@H](/C(C)=C/[C@@H]3CC[C@@H](O)[C@H](OC)C3)[C@H](C)[C@@H](O)CC1=O)[C@H](C)C[C@@H]2OC [Tacrolimus] (1000 nM)",
    "normalised response (%)": 110
  }
]

Query: Respond only with normalised response recorded for N#CC[C@H](C1CCCC1)n1cc(-c2ncnc3[nH]ccc23)cn1 [Ruxolitinib] (100 nM)
Response: 99.5

Query: Respond only with normalised response recorded for CC(=O)O[C@]1(C(C)=O)CC[C@H]2[C@@H]3C=C(C)C4=CC(=O)CC[C@]4(C)[C@H]3CC[C@@]21C [Megestrol acetate] (1000 nM)
Response: 115

Query: Respond only with normalised response recorded for Clc1ccc(C(c2ccccc2Cl)C(Cl)Cl)cc1 (centres undefined) [Mitotane] (100 nM)
Response: 101

----------
Attribute: drug sensitivity score
- Tested on: HCC1599
- assay text: drug sensitivity score (DSS), CellTiter-Blue viability (DSS (AUC-based score)); higher = stronger viability inhibition; extreme values may be limits of the assay
- condition info: incubation time: 72 h
Give the figure only, with no unit attached.

Would you please look over these solved cases?
[
  {
    "compound": "Cc1ccc(F)c(NC(=O)Nc2ccc(-c3cccc4[nH]nc(N)c34)cc2)c1 [Linifanib]",
    "target entity": "HCC1599",
    "observed value": 0
  },
  {
    "compound": "Nc1nc(Cl)nc2c1ncn2[C@H]1C[C@H](O)[C@@H](CO)O1 [Cladribine]",
    "target entity": "HCC1599",
    "observed value": 0
  }
]

Now consider the entry below.
Query: Respond only with drug sensitivity score recorded for Clc1ccc(C(c2ccccc2Cl)C(Cl)Cl)cc1 (stereo not drawn) [Mitotane]
Response: 0

----------
- Tested on: MDA-MB-468
- assay text: normalised response (% of control), CellTiter-Glo; higher = more viable cells (100 = DMSO, 0 = benzethonium chloride kill control)
- condition info: incubation time: 72 h
assay readout: normalised response (%)
Give just the numeric value; % need not be written.

Would you please look over these solved cases?
[
  {
    "compound": "CN1CC[C@H](c2c(O)cc(O)c3c(=O)cc(-c4ccccc4Cl)oc23)[C@H](O)C1 [Alvocidib] (1000 nM)",
    "readout unit": "%",
    "normalised response": 8.32
  },
  {
    "compound": "COc1cccc2c1C(=O)c1c(O)c3c(c(O)c1C2=O)C[C@@](O)(C(=O)CO)C[C@@H]3O[C@H]1C[C@H](N)[C@H](O)[C@H](C)O1 [Doxorubicin] (1 nM)",
    "readout unit": "%",
    "normalised response": 104
  },
  {
    "compound": "CS(=O)(=O)c1ccc(C(=O)Nc2ccc(Cl)c(-c3ccccn3)c2)c(Cl)c1 [Vismodegib] (1 nM)",
    "readout unit": "%",
    "normalised response": 98.7
  },
  {
    "compound": "CO[C@H]1C[C@@H]2CC[C@@H](C)[C@@](O)(O2)C(=O)C(=O)N2CCCC[C@H]2C(=O)O[C@H]([C@H](C)C[C@@H]2CC[C@@H](OC(=O)C(C)(CO)CO)[C@H](OC)C2)CC(=O)[C@H](C)/C=C(\\C)[C@@H](O)[C@@H](OC)C(=O)[C@H](C)C[C@H](C)/C=C/C=C/C=C/1C [Temsirolimus] (0.1 nM)",
    "readout unit": "%",
    "normalised response": 88.6
  },
  {
    "compound": "S=c1[nH]cnc2nc[nH]c12 [Mercaptopurine] (1000 nM)",
    "readout unit": "%",
    "normalised response": 91.8
  }
]

Query: Respond only with normalised response recorded for Cc1ccc(F)c(NC(=O)Nc2ccc(-c3cccc4[nH]nc(N)c34)cc2)c1 [Linifanib] (100 nM)
Response: 104

Query: Respond only with normalised response recorded for CO[C@H]1C[C@@H]2CC[C@@H](C)[C@@](O)(O2)C(=O)C(=O)N2CCCC[C@H]2C(=O)O[C@H]([C@H](C)C[C@@H]2CC[C@@H](OC(=O)C(C)(CO)CO)[C@H](OC)C2)CC(=O)[C@H](C)/C=C(\C)[C@@H](O)[C@@H](OC)C(=O)[C@H](C)C[C@H](C)/C=C/C=C/C=C/1C [Temsirolimus] (10 nM)
Response: 62.1

Query: Respond only with normalised response recorded for CC(=O)O[C@]1(C(C)=O)CC[C@H]2[C@@H]3C=C(C)C4=CC(=O)CC[C@]4(C)[C@H]3CC[C@@]21C [Megestrol acetate] (1000 nM)
Response: 95.4

Query: Respond only with normalised response recorded for CN1CC[C@H](c2c(O)cc(O)c3c(=O)cc(-c4ccccc4Cl)oc23)[C@H](O)C1 [Alvocidib] (10 nM)
Response: 99.9

----------
Attribute: normalised response
- Test system: CAL-51
- assay text: normalised response (% of control), CellTiter-Glo; higher = more viable cells (100 = DMSO, 0 = benzethonium chloride kill control)
- condition info: incubation time: 72 h
Give just the numeric value; % need not be written.

Would you please look over these solved cases?
[
  {
    "molecule": "Nc1ccn([C@@H]2O[C@H](CO)[C@@H](O)[C@@H]2O)c(=O)n1 [Cytarabine] (10 nM)",
    "normalised response (%)": 80.4
  },
  {
    "molecule": "C=CC[C@@H]1/C=C(\\C)C[C@H](C)C[C@H](OC)[C@H]2O[C@@](O)(C(=O)C(=O)N3CCCC[C@H]3C(=O)O[C@H](/C(C)=C/[C@@H]3CC[C@@H](O)[C@H](OC)C3)[C@H](C)[C@@H](O)CC1=O)[C@H](C)C[C@@H]2OC [Tacrolimus] (1000 nM)",
    "normalised response (%)": 109
  }
]

Query: Respond only with normalised response recorded for CN(C)C/C=C/C(=O)Nc1cc2c(Nc3ccc(F)c(Cl)c3)ncnc2cc1O[C@H]1CCOC1 [Afatinib] (1 nM)
Response: 116
